Hi there, I'd appreciate the recorded log10 of IC50 for every entry that follows.
SYSTEM_UNDER_TEST: Histone deacetylase 1 (Homo sapiens)
Sequence (Q13547 whole entry): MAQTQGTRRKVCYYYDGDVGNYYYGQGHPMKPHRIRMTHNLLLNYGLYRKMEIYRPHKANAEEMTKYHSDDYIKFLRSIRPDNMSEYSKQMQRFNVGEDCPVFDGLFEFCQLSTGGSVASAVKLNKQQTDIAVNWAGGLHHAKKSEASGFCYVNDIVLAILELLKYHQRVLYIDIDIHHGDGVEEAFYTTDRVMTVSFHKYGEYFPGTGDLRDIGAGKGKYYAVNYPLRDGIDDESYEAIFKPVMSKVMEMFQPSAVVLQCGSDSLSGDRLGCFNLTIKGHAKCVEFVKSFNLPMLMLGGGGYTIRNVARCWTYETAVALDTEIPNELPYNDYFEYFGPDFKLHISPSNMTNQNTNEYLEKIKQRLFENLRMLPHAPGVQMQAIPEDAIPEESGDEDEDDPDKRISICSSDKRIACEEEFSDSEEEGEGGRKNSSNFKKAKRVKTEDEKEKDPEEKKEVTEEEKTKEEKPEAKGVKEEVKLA
ASSAY_TEXT: Inhibition of recombinant human full length HDAC1 using fluorogenic substrate 3 after 30 mins by fluorescence assay
Use the decimal logarithm of IC50 (nM).

Example results:
SMILES_ENTRY | SYSTEM_UNDER_TEST | log10 of IC50
Nc1ccccc1NC(=O)c1ccc(C(=O)NCCNc2nonc2/C(=N/O)Nc2ccc(F)c(Br)c2)cn1 | Histone deacetylase 1 (Homo sapiens) | 2.78
Nc1ccccc1NC(=O)c1cccc(C(=O)NCCNc2nonc2/C(=N/O)Nc2ccc(F)c(Br)c2)c1 | Histone deacetylase 1 (Homo sapiens) | 2.80
O=C(/C=C/c1ccc(C(=O)NCCNc2nonc2/C(=N/O)Nc2ccc(F)c(Br)c2)cc1)NO | Histone deacetylase 1 (Homo sapiens) | 1.66
Nc1ccccc1NC(=O)c1ccc(C(=O)NCCNc2nonc2/C(=N/O)Nc2ccc(F)c(Br)c2)cc1 | Histone deacetylase 1 (Homo sapiens) | 1.82
O=C(CCCCn1cc(-c2ccc(C(=O)NCCNc3nonc3/C(=N/O)Nc3ccc(F)c(Br)c3)cc2)nn1)NO | Histone deacetylase 1 (Homo sapiens) | 2.95

Each of the following entries comes with a recorded value; kindly state log10 of IC50 for each.
1. O=C(CCCC(=O)NCCNc1nonc1/C(=N/O)Nc1ccc(F)c(Br)c1)NO
2. O=C(CCCCCCC(=O)NCCNc1nonc1/C(=N/O)Nc1ccc(F)c(Br)c1)NO

[A]
2.08
1.68
